Tested System: Sentrin-specific protease 6 (Homo sapiens);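 note: Luminescence-based dose-response confirmatory assay of SENP6 inhibition, following up an ultra-high-throughput screen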
Sequence (Q9GZR1 whole entry): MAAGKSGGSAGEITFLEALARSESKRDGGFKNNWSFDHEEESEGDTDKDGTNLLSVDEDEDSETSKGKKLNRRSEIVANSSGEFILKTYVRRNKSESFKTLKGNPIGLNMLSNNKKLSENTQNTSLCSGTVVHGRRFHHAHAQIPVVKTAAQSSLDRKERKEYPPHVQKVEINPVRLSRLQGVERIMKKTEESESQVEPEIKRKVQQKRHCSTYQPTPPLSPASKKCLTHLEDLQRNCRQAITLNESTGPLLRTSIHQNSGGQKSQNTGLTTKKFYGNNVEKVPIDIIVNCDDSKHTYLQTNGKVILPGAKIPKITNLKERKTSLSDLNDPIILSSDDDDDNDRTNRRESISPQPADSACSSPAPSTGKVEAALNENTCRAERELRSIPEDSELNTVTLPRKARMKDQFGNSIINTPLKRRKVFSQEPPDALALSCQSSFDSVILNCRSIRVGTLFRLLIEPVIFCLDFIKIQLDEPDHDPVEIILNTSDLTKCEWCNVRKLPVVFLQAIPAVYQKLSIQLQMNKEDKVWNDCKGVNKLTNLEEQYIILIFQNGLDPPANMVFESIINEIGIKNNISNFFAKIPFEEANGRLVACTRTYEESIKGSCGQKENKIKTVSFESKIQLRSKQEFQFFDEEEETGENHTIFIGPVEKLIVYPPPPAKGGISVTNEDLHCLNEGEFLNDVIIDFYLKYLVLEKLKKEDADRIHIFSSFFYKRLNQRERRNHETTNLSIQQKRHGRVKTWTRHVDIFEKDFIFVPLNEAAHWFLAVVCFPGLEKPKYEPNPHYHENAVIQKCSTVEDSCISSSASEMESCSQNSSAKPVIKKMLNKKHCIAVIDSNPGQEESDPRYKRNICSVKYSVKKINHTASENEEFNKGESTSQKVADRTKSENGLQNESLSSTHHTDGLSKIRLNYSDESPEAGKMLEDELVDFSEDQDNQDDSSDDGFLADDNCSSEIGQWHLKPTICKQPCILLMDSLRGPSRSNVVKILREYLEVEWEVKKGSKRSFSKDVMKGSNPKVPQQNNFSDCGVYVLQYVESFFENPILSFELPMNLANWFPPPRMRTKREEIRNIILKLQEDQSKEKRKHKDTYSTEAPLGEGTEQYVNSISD
Assay type: functional
The source made the active and inactive calls.
The reply should name one outcome from true = active, false = inactive

Exam item: Tell me the assay call for "CCOC(=O)c1c(NS(=O)(=O)c2ccccc2)n(CCCOC)c2nc3ccccc3nc12" please.
Marked response: true

Exam item: Tell me the assay call for "Cc1ccc(Cl)c2sc(NC(=O)C3=COCCO3)nc12" please.
Marked response: true

Exam item: Tell me the assay call for "O=C(O)c1ccc2cc(-c3ccccc3)[nH]c2c1" please.
Marked response: true

Exam item: Tell me the assay call for "O=C(COC(=O)c1ccc([N+](=O)[O-])s1)NCCc1ccccc1" please.
Marked response: true

Exam item: Tell me the assay call for "O=[N+]([O-])c1cccc(/C=N/Nc2ccccn2)c1" please.
Marked response: false

Exam item: Tell me the assay call for "CCOC(=O)c1ccc(NC(=O)/C=C/c2cccs2)cc1" please.
Marked response: true

* * *

Tested System: Trypsin (Sus scrofa, UniProt P00761)
Sequence (P00761 whole entry): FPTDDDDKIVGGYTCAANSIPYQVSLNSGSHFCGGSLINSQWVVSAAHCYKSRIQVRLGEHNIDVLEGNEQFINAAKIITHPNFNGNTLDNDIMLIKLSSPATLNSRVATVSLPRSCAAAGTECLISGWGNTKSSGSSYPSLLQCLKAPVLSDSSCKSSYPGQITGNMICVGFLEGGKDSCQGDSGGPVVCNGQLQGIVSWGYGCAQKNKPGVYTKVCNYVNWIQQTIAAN
Assay Notes: trypsin protease activity blockade – biochemical, quenched peptide fluorescence, cherry-pick, selectivity assay for Rce1 protease inhibitor project, dose response (AID 488789)
Active and inactive are the calls of the source.
Endpoint Name: AC50

Exam item: # get_value(readout='AC50', item= "CCOc1ccc2[nH]c3c(N4CCc5ccccc5C4)ncnc3c2c1" )
Marked response: 6.04 µM (active)

Exam item: # get_value(readout='AC50', item= "N=c1oc2cc(O)ccc2cc1C(=O)Nc1nc2ccccc2s1" )
Marked response: 12.4 µM (active)

Exam item: # get_value(readout='AC50', item= "O=S(=O)(c1ccccc1)c1cnn2c(C(F)(F)F)cc(-c3ccc(F)cc3)nc12" )
Marked response: 20.2 µM (active)

Exam item: # get_value(readout='AC50', item= CCOc1ccc(C2C(C(=O)OC)=CN(C(C)c3ccccc3)C=C2C(=O)OC)cc1 (centres undefined) )
Marked response: 5.7 µM (active)

* * *

Tested System: Mannose-6-phosphate isomerase (Homo sapiens, UniProt P34949)
Sequence (P34949 whole entry): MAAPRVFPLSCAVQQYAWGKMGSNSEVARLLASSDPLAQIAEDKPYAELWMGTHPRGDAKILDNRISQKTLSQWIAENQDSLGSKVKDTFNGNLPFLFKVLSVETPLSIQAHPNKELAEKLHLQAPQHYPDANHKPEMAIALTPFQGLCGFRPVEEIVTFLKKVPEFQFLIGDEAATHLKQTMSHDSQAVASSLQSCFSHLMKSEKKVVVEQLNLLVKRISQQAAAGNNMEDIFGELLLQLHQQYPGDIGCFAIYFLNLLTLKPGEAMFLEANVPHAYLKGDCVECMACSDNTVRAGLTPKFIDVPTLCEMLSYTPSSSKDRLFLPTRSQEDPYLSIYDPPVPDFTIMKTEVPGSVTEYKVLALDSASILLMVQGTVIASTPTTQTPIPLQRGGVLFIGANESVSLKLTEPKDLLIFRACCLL
Assay Notes: MPI inhibition at elevated mannose 6-phosphate – biochemical, fluorescence intensity, high mannose 6-phosphate, primary screen (AID 1220)
The source made the active and inactive calls.
Endpoint Name: IC50

Exam item: # get_value(readout='IC50', item= "O=C(N/N=C/c1ccc(N2CCOCC2)o1)c1cccc([N+](=O)[O-])c1" )
Marked response: > 50 µM (not active)

Exam item: # get_value(readout='IC50', item= "COc1ccc(OCc2n[nH]c(=S)n2N)cc1" )
Marked response: 21.4 µM (active)

Exam item: # get_value(readout='IC50', item= "COCC/N=c1\scc(-c2cccs2)n1/N=C/c1ccc(O)c(O)c1O" )
Marked response: 23.8 µM (active)

Exam item: # get_value(readout='IC50', item= CCN1CCN(C(=O)C(C)Nc2cc(Cl)c(OC)cc2OC)CC1 (stereo not given) )
Marked response: > 50 µM (not active)

Exam item: # get_value(readout='IC50', item= "CCn1c2ccccc2c2nc3cc(S(=O)(=O)N4CCOCC4)ccc3nc21" )
Marked response: 20 µM (active)

* * *

For each of the compounds below, state its EC50.
Assay Notes: luciferase reporter signal suppression in cells – H4 neuroglioma cells, luminescence, dose response (AID 1990)
Type: functional, cell-based
Calls of active or inactive are those of the source.

Exam item: # get_value(readout='EC50', item= "CCOC(=O)COc1cccc2c(=O)n(CC(=O)NCc3ccc(F)cc3)ccc12" )
Marked response: 12.6 µM (active)

Exam item: # get_value(readout='EC50', item= "N#CCC(=O)N/N=C/c1cn(Cc2cccc3ccccc23)c2ccccc12" )
Marked response: 14.9 µM (active)

Exam item: # get_value(readout='EC50', item= CC1=C(C(=O)OC2CCCCCCC2)C(c2ccc(O)cc2)NC(=O)N1 (centres undefined) )
Marked response: 21.1 µM (active)

Exam item: # get_value(readout='EC50', item= "CCN1C=CC(=C2C(=O)c3ccccc3C2=O)C=C1" )
Marked response: < 0.1 µM (active)
